Listed below: LD50 values for each entry.
test: in vivo; settings: iv, i.v. in the mouse
Answer in mg/kg, number only, no unit symbol.

Solved cases below.
INSERT INTO assay_data (compound, unit_of_measure, data_value) VALUES
  ('C[C@H](NC(=O)c1ccc(C(=N)N)cc1)C(=O)N1CCC(OCC(=O)O)CC1', 'mg/kg', 250),
  ('N=C(N)c1ccc(C(=O)N[C@@H](Cc2ccc(O)cc2)C(=O)N2CCC(OCC(=O)O)CC2)cc1', 'mg/kg', 250);

API: the following record is the query input.
Record request: LD50 value, item C[C@H](NC(=O)c1ccc(C(=N)N)cn1)C(=O)N1CCC(OCC(=O)O)CC1 500
